tested on: SW-620 colon cancer cells; test: In vitro cytotoxicity, SRB assay, SW-620; assay type: cell-based, human; details: Conc. 5 × 10^5 (r27-r29: 5 × 10^−5); 48 hr; Table 1
value.kind: Growth inhibition % SW-620 Colon (%)
Write down the numeric answer in % and omit the unit.

Problem: Recorded Growth inhibition % SW-620 Colon for CC1CCC2(C)CCC3(C)C(=CCC4C5(C)CCC(OC=O)C(C)(C(=O)O)C5CCC43C)C2C1C (centres unmarked) , please?
Solution: 92

====

system: SW-620 colon cancer cells; experiment: In vitro cytotoxicity, SRB assay, SW-620; assay type: cell-based, human; settings: Conc. 5 × 10^5 (r27-r29: 5 × 10^−5); 48 hr; Table 1
value.kind: Growth inhibition % SW-620 Colon
Report field: quantity (unit follows the number).

- compound: "CCCC(=O)OC1CCC2(C)C(CCC3(C)C2CC=C2C4C(C)C(C)CCC4(C)CCC23C)C1(C)C(=O)O (stereo not shown) [1, R3O = COCH2CH2CH3, R1 = H, R4 = R5 = H]"
  result: "101%"

With those in mind, consider the next compound.
Problem: Recorded Growth inhibition % SW-620 Colon for CC1CCC2(C)CCC3(C)C(=CC(=O)C4C5(C)CCC(OC(=O)CCC(=O)O)C(C)(C(=O)O)C5CCC43C)C2C1C (stereo not shown) [1,R3O = —COCH2CH2COOH R1 = H, R4 + R5 = O] , please?
Solution: 2%

====

test system: SW-620 colon cancer cells; assay: In vitro cytotoxicity, SRB assay, SW-620; format: cell-based, human; settings: Conc. 5 × 10^5 (r27-r29: 5 × 10^−5); 48 hr; Table 1
# if value of Growth inhibition % SW-620 Colon reaches 60%, tag Criterion met; if it stays below, tag Criterion not met

Some solved cases for reference:
- compound: "CC1CCC2(C)CCC3(C)C(=CC(=O)C4C5(C)CCC(OC=O)C(C)(C(=O)O)C5CCC43C)C2C1C (centres unmarked) [1, R3O = COH, R1 = H, R4 + R5 = O]"
  label.class: "Criterion met"
- compound: "CCC(=O)OC1CCC2(C)C(CCC3(C)C2C(=O)C=C2C4C(C)C(C)CCC4(C)CCC23C)C1(C)C(=O)O (centres unmarked) [1, R = COCH2CH3, R1 = H, R4 + R5 = O]"
  label.class: "Criterion met"
- compound: "CC(=O)OC1CCC2(C)C(CCC3(C)C2CC=C2C4C(C)C(C)CCC4(C)CCC23C)C1(C)C(=O)O (centres unmarked) [1, R3O = —COCH3, R1 = H, R4 = R5 = H]"
  label.class: "Criterion not met"
- compound: "CC1CCC2(C)CCC3(C)C(=CC(=O)C4C5(C)CCC(OC(=O)CCC(=O)O)C(C)(C(=O)O)C5CCC43C)C2C1C (centres unmarked) [1,R3O = —COCH2CH2COOH, R1 = H, R4 + R5= O]"
  label.class: "Criterion not met"
- compound: "CC1CCC2(C)CCC3(C)C(=CCC4C5(C)CCC(O)C(C)(C(=O)O)C5CCC43C)C2C1C (centres unmarked) [1, R3 = H, R1 = H, R4 = R5 = H]"
  label.class: "Criterion met"
- compound: "CCCCCC(=O)OC1CCC2(C)C(CCC3(C)C2C(=O)C=C2C4C(C)C(C)CCC4(C)CCC23C)C1(C)C(=O)O (centres unmarked)"
  label.class: "Criterion met"

Problem: Hi team, for CCC(=O)OC1CCC2(C)C(CCC3(C)C2CC=C2C4C(C)C(C)CCC4(C)CCC23C)C1(C)C(=O)O (centres unmarked) [1, R3O = —COCH2CH3, R1 = H, R4 = R5 = H] , is the recorded Growth inhibition % SW-620 Colon at or above 60%?
Solution: Criterion met

Problem: Hi team, for CCC(=O)OC1CCC2(C)C(CCC3(C)C2C(=O)C=C2C4C(C)C(C)CCC4(C)CCC23C)C1(C)C(=O)O (centres unmarked) [1, R3O = COCH2CH3, R1 = H, R4 + R5 = O] , is the recorded Growth inhibition % SW-620 Colon at or above 60%?
Solution: Criterion met

Problem: Hi team, for CC1CCC2(C)CCC3(C)C(=CC(=O)C4C5(C)CCC(O)C(C)(C(=O)O)C5CCC43C)C2C1C (centres unmarked) [1, R = H, R1 = H, X = O] , is the recorded Growth inhibition % SW-620 Colon at or above 60%?
Solution: Criterion not met

Problem: Hi team, for CC(=O)OC1CCC2(C)C(CCC3(C)C2C(=O)C=C2C4C(C)C(C)CCC4(C)CCC23C)C1(C)C(=O)O (centres unmarked) [1, R3O = COCH3, R1 = H, R4 + R5 = O] , is the recorded Growth inhibition % SW-620 Colon at or above 60%?
Solution: Criterion not met

Problem: Hi team, for CCCC(=O)OC1CCC2(C)C(CCC3(C)C2CC=C2C4C(C)C(C)CCC4(C)CCC23C)C1(C)C(=O)O (centres unmarked) [1,R3O = COCH2CH2CH3, R1 = H, R4 = R5 = H] , is the recorded Growth inhibition % SW-620 Colon at or above 60%?
Solution: Criterion met
